EC50 [nM] Inhibition of HGF stimulated c-Met autophosphorylation in A549 values by entry
Biological target: full length human c-Met on cells (human, UniProt P08581 25-1390)
Sequence (P08581 25-1390): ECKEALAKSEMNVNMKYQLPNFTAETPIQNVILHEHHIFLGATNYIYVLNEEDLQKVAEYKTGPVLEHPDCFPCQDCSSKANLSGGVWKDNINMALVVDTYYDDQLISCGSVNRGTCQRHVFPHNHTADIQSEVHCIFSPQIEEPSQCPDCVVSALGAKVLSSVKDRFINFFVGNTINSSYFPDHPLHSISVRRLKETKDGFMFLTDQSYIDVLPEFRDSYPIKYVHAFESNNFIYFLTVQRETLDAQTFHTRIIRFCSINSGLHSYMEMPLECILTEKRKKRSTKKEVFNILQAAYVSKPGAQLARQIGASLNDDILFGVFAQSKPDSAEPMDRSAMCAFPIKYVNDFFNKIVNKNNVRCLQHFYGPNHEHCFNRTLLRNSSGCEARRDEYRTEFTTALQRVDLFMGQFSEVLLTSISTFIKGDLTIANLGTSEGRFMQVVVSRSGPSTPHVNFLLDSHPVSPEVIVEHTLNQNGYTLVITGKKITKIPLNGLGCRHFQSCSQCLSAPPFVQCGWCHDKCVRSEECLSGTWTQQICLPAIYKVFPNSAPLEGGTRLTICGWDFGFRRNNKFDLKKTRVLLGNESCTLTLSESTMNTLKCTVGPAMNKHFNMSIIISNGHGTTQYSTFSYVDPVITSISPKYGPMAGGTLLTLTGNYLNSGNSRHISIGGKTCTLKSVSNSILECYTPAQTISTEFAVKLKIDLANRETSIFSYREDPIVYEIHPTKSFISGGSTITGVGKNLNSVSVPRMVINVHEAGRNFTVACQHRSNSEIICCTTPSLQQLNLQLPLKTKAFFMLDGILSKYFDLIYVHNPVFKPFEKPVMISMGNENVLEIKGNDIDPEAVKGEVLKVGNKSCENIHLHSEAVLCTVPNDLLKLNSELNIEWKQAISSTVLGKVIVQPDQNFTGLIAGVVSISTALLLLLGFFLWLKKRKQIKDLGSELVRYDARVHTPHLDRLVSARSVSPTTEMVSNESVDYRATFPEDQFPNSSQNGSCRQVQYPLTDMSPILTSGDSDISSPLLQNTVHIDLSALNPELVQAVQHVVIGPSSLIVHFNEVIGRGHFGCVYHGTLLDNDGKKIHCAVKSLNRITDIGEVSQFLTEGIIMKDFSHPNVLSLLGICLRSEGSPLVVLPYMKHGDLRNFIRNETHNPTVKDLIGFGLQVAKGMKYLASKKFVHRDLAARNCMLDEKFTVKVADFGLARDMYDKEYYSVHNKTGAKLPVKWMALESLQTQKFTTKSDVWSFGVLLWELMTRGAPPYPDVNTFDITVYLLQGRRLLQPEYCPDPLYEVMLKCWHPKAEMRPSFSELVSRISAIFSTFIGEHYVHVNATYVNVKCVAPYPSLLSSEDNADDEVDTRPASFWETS
Test: cell-based or functional assay
Dear colleague, please return just the value in nM, with no unit written.

# count of solved cases: 3
binder	measured_number
05097 in IgG format (antibody, V domains shown) VH: QVQLVQSGAEVKKPGSSVKVSCKASGGTFSSYAISWVRQAPGQGLEWMGGIDPFGTANYAQKFQGRVTITADESTSTAYMELSSLRSEDTAVYYCARVYQDVWGQGTLVTVSS VL: DIVMTQSPDSLAVSLGERATINCRSSQSILYGINNNFLGWYQQKPGQPPKLLIYWASTRESGVPDRFSGSGSGTDFTLTISSLQAEDVAVYYCQQYAFGWTFGQGTKVEIKR	0.166
05091 in IgG format (antibody, V domains shown) VH: QVQLVQSGAEVKKPGASVKVSCKASGYTFTGYYMNWVRQAPGQGLEWMGIINPWTGNTNYAQKFQGRVTMTRDTSISTAYMELSSLRSEDTAVYYCARDPGFFYYTPSDLWGQGTLVTVSS VL: DIELTQPPSVSVAPGQTARISCSGDSIGNKYVHWYQQKPGQAPVLVIYADSDRPSGIPERFSGSNSGNTATLTISGTQAEDEADYYCQSYAHYHDIWVFGGGTKLTVLG	0.193
05185 in IgG format (antibody, V domains shown) VH: QVQLVQSGAEVKKPGSSVKVSCKASGGTFSSYAISWVRQAPGQGLEWMGGIDPIMGTEYAQKFQGRVTITADESTSTAYMELSSLRSEDTAVYYCARVYQDVWGQGTLVTVSS VL: DIVMTQSPDSLAVSLGERATINCRSSQSILYGINNNFLGWYQQKPGQPPKLLIYWASTRESGVPDRFSGSGSGTDFTLTISSLQAEDVAVYYCQQYAYEPNTFGQGTKVEIKR	0.219

Shift focus to the following entry.
Fill in: EC50 [nM] Inhibition of HGF stimulated c-Met autophosphorylation in A549 of 05098 in IgG format (antibody, V domains shown) VH: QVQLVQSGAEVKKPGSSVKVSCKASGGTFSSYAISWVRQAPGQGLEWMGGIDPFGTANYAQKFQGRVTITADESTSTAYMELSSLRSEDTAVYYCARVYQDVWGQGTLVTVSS VL: DIVMTQSPDSLAVSLGERATINCRSSQSILYGINNNFLGWYQQKPGQPPKLLIYWASTRESGVPDRFSGSGSGTDFTLTISSLQAEDVAVYYCLQYSDEPWTFGQGTKVEIKR is ___
0.419
